target: glucagon receptor (GCGR) (Homo sapiens, UniProt P47871); construct: expressed in transfected cells; host or cells: CHO-K1 cells overexpressing GCGR (membrane fractions); assay: I125-glucagon binding assay (competition, GCGR membrane fractions); details: competition with I125-glucagon 0.0625 nM, membrane fractions of GCGR overexpressed CHO-K1 cells
Sequence (P47871 26-477): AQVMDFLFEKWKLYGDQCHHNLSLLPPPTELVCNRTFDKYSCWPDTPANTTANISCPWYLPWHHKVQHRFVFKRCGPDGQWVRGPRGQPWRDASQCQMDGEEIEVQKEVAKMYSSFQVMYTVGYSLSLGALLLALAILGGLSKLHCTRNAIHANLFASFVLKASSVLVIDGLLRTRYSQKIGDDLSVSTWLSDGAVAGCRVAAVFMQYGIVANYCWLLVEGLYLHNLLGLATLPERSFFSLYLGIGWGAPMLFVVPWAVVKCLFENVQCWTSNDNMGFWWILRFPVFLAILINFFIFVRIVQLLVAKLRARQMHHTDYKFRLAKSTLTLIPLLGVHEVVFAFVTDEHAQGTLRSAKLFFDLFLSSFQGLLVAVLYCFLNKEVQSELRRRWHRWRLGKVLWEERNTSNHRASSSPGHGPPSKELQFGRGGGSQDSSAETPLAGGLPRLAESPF
parameter_measured: pIC50
Give bare numbers, as −log10 of the molar value.

Below, 4 compounds whose answers are already recorded.
1. CC[C@H](C)[C@@H](COc1ccc(-c2ccc(C(F)(F)F)cc2F)c(OC)c1)Nc1ccc(C(=O)NCCC(=O)O)cc1 [Compound 13-4]; 7.17
2. CCCC[C@@H](COc1ccc(-c2cc3ccccc3o2)c(F)c1)Nc1ccc(C(=O)NCCC(=O)O)cc1 [Compound 8-13]; 7.36
3. CCOC[C@@H](COc1ccc(-c2cc3ccccc3o2)cc1)Nc1ccc(C(=O)NCCC(=O)O)cc1 [Compound 6-3]; 6.32
4. CC(C)[C@@H](COc1ccc(-c2ccc(C(F)(F)F)cc2F)cc1)Nc1ccc(C(=O)NCCS(=O)(=O)O)cc1 [Compound 1-33]; 5.72

For each entry beneath this line, provide reported pIC50.
1. CCCC[C@@H](COc1ccc(-c2nnc(C(C)(C)C)o2)cc1)Nc1ccc(C(=O)NCCC(=O)O)cc1 [Compound 1-49]
2. CC(C)[C@@H](COc1cnc(-c2ccc(C(F)(F)F)cc2Cl)nc1)Nc1ccc(C(=O)NCCC(=O)O)cc1 [Compound 12-4]
3. CC(C)[C@@H](COc1ccc(-c2ccc(C(F)(F)F)cc2Cl)nc1)Nc1ccc(C(=O)NCCC(=O)O)cc1 [Compound 10-2]
4. CCCC[C@@H](COc1ccc(-c2ccc(C(F)(F)F)cc2F)c(OC)c1)Nc1ccc(C(=O)NCCC(=O)O)cc1 [Compound 13-14]
5. Cc1nn(-c2ncc(OC[C@H](CC(C)C)Nc3ccc(C(=O)NCCC(=O)O)cc3)cn2)cc1C(F)(F)F [Compound 12-1]
6. CC[C@H](C)[C@@H](COc1ccc(-c2ccc(Cl)cc2Cl)cc1)Nc1cnc(C(=O)NCCC(=O)O)cn1 [Compound 9-2]
7. CCCC[C@@H](COc1ccc(-c2ccc(C(F)(F)F)cc2Cl)c(F)c1)Nc1ccc(C(=O)NCCC(=O)O)cc1 [Compound 8-15]
8. CCCC[C@@H](COc1cc(C)c(-c2cc3ccccc3o2)c(C)c1)Nc1ccc(C(=O)NCc2nnn[nH]2)cc1 [Compound 2-13]

Reply text:
5.14
6.27
6.59
7.82
6.17
6.44
7.23
6.78

Give pIC50 for each of the items listed below.
1. CC(C)[C@@H](COc1ccc(-c2cc3ccccc3o2)cc1)Nc1ccc(C(=O)NCCC(=O)O)cc1 [Compound 1-2]
2. CC[C@H](C)[C@@H](COc1ccc(-c2ccc(OC)cc2Cl)cc1)Nc1ccc(C(=O)NCCC(=O)O)cc1 [Compound 1-38]
3. CC(C)[C@@H](COc1ccc(-c2ccc(N(C)C)cc2Cl)cc1)Nc1ccc(C(=O)NCCC(=O)O)cc1 [Compound 1-37]

Reply text:
[6.68, 6.76, 6.43]

Quick request: pIC50 for each listed item, please.
1. CC(C)C[C@@H](COc1ccc(-c2cc3ccccc3o2)c(F)c1)Nc1ccc(C(=O)NCCC(=O)O)cc1 [Compound 8-20]
2. CCCC[C@@H](COc1ccc(-c2ccc(C(F)(F)F)cc2Cl)nc1)Nc1ccc(C(=O)NCCC(=O)O)cc1 [Compound 10-11]
3. CCCC[C@@H](COc1ccc(-c2ccc(C(F)(F)F)cc2Cl)c(Cl)c1)Nc1ccc(C(=O)NCc2nnn[nH]2)cc1 [Compound 3-9]
4. CCN(c1ccc(C(=O)NCCC(=O)O)cc1)[C@H](COc1ccc(-c2cc3ccccc3o2)cc1)C(C)C [Compound 6-2]
5. COc1cc(OC[C@@H](Nc2ccc(C(=O)NCCC(=O)O)cc2)C(C)C)ccc1-c1ccc(C(F)(F)F)cc1 [Compound 13-10]
6. CC(C)[C@@H](COc1ccc(-c2ccc(C(F)(F)F)cc2Cl)c(Cl)c1)Nc1ccc(C(=O)NCCC(=O)O)cc1 [Compound 3-4]
7. CCCC[C@@H](COc1ccc(-c2ccc(C(F)(F)F)cc2)c(Cl)c1)Nc1ccc(C(=O)NCc2nnn[nH]2)cc1 [Compound 3-17]

Reply text:
7.08
6.57
7.43
6.19
7.04
7.77
6.95

Please supply pIC50 for each of the following items, keeping them in order.
1. COc1cc(OC[C@@H](Nc2ccc(C(=O)NCCC(=O)O)cc2)C(C)C)ccc1-c1cc2ccccc2o1 [Compound 13-5]
2. CC(C)(C)[C@@H](COc1ccc(-c2cc3ccccc3o2)cc1)Nc1ccc(C(=O)NCCC(=O)O)cc1 [Compound 1-40]

Reply text:
6.95
6.71

Hey, can you go through the list below and give me pIC50 for every item?
1. CC(C)[C@@H](COc1ccc(-c2cc3ccccc3o2)c(Cl)c1)Nc1ccc(C(=O)NCc2nnn[nH]2)cc1 [Compound 3-5]
2. CCCC[C@@H](COc1ccc(-c2ccc(C(C)(C)C)cc2)cc1)Nc1ccc(C(=O)NCCC(=O)O)cc1 [Compound 1-11]
3. CC(C)C[C@@H](COc1ccc(-c2ccc(Cl)cc2Cl)c(F)c1)Nc1ccc(C(=O)NCCC(=O)O)cc1 [Compound 8-19]
4. CC(C)[C@@H](COc1ccc(-c2ccc(F)cc2)nn1)Nc1ccc(C(=O)NCCC(=O)O)cc1 [Compound 17-10]

Reply text:
[6.93, 6.82, 7.00, 5.64]
